Molecular target: UniProt Q86VL8
Sequence (Q86VL8 whole entry): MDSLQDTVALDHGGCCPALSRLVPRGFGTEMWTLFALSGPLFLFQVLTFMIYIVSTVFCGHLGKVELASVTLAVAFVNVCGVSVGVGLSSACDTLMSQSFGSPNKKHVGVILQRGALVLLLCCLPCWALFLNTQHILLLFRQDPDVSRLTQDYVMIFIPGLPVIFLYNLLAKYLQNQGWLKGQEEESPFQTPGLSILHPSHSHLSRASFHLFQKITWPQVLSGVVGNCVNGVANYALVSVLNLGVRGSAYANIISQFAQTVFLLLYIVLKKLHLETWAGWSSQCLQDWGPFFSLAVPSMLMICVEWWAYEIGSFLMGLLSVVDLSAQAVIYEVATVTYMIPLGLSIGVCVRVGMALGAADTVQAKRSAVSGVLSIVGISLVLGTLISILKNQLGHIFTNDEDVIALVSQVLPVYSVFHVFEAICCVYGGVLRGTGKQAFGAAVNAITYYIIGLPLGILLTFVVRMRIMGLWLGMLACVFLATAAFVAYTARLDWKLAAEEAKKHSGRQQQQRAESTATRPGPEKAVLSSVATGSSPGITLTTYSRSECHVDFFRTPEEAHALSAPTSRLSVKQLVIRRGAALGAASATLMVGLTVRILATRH
Test: Substrate activity at MATE2-K (unknown origin) expressed in HEK293 cells assessed as increase in uptake by HPLC-MS/MS analysis
Assay type: cell-based
value.kind: Activity

Previously resolved entries follow.
N=C(N)c1ccc(OCCCCCOc2ccc(C(=N)N)cc2)cc1 [PENTAMIDINE]    Dose-dependent-effect
COCCn1c2c([n+](Cc3cnccn3)c1C)C(=O)c1ccccc1C2=O [SEPANTRONIUM]    Dose-dependent-effect
O=C(O)c1cn(C2CC2)c2cc(N3CCNCC3)c(F)cc2c1=O [CIPROFLOXACIN]    Dose-dependent-effect
Cc1ncc(C[n+]2csc(CCO)c2C)c(N)n1 [THIAMINE ION]    Dose-dependent-effect
Nc1ccn([C@@H]2CS[C@H](CO)O2)c(=O)n1 [LAMIVUDINE]    Dose-dependent-effect
CN[C@@H]1CCc2[nH]c3ccc(C(N)=O)cc3c2C1 [FROVATRIPTAN]    Dose-dependent-effect

I would be grateful if you could provide Activity for each of the following entries.
1. CN(C)C(=O)Oc1cccc([N+](C)(C)C)c1 [NEOSTIGMINE]
2. c1c2c(cc3c1OCO3)-c1cc3ccc4c(c3c[n+]1CC2)OCO4 [COPTISINE]
3. Cc1cc2nc3c(=O)[nH]c(=O)nc-3n(C[C@H](O)[C@H](O)[C@H](O)CO)c2cc1C [RIBOFLAVIN]

RESULT:
1. Dose-dependent-effect
2. Dose-dependent-effect
3. Dose-dependent-effect

###

target: MATE2-K (Homo sapiens); test: in vitro; conditions: HEK293 cells expressing MATE2-K
Field: uptake ratio at 1 min, 2.5 µM. Provide a value for each of the molecules that follow.

CC(C)(C)NCC(O)c1ccc(O)c(O)c1 (stereo unspecified) [COLTEROL]    > 2
CN(C)C(=O)Oc1cccc([N+](C)(C)C)c1 [NEOSTIGMINE]    > 2
NCCCCCN    < 2
CNC(C)Cc1ccc2c(c1)OCO2 (stereo unspecified) [MIDOMAFETAMINE]    < 2
NCCc1c[nH]c2ccc(O)cc12 [SEROTONIN]    > 2

Please examine the following record next.
QUERY: Fill in: uptake ratio at 1 min, 2.5 µM of CC[N+](C)(C)c1cccc(O)c1 [EDROPHONIUM] is ___
RESULT: > 2
